- Target desc: HLA-B*07:02 (human)
- Experiment summary: UV peptide exchange + HLA class I ELISA
- Experimental context: remark: other sources report otherwise
Entries and their measured exchange rate vs Pos peptide follow.
Assay readout: exchange rate vs Pos peptide (%)

INSERT INTO results (binder, endpoint_value) VALUES
  ('YQFTFDLLI (here or on the partner: biotinylated heavy chain) [P48 9-mer peptide (AR.p.H875Y)]', 12.8),
  ('RAKCKFSIL (here or on the partner: biotinylated heavy chain) [P56 9-mer peptide (SPOP(F102C))]', 82.5),
  ('RAVRRMNTF (here or on the partner: biotinylated heavy chain) [P17 9-mer peptide (MSMB-NOCA4 fusion)]', 38.7),
  ('FLFLLLPLS (here or on the partner: biotinylated heavy chain) [P87 9-mer peptide (AR-Intron splice variant)]', 5),
  ('RVGNCKHLK (here or on the partner: biotinylated heavy chain) [P82 9-mer peptide (AR-V7 splice variant)]', 12.9),
  ('YLRRQKRLK (here or on the partner: biotinylated heavy chain) [P60 9-mer peptide (FOXA1.p.F266L)]', 6.1),
  ('IVWWCPMSR (here or on the partner: biotinylated heavy chain) [P98 9-mer peptide (TP53 (R213D) frameshift)]', 6.7),
  ('IPVLTRWPL (here or on the partner: biotinylated heavy chain) [P19 9-mer peptide (TMEM222-LOC644961 fusion)]', 91.3),
  ('YCMAAPMGL (here or on the partner: biotinylated heavy chain) [P76 9-mer peptide (AR-V3 splice variant)]', 91.5),
  ('CPMSRLRLA (here or on the partner: biotinylated heavy chain) [P46 9-mer peptide (TP53 (R213D) frameshift)]', 64.8),
  ('LLERNSFEV (here or on the partner: biotinylated heavy chain) [P73 9-mer peptide (TP53 (G266E))]', 8.7),
  ('QLIAMDSAI (here or on the partner: biotinylated heavy chain) [P22 9-mer peptide (SLC45A3-ELK4 fusion)]', 8.3),
  ('LMAQRLLLR (here or on the partner: biotinylated heavy chain) [P97 9-mer peptide (FOXRED2-TXN2 fusion)]', 7);
